These measurements were taken from ChEMBL document CHEMBL4732187.

molecular target: CDK2/Cyclin A2 (Homo sapiens, UniProt P24941); assay: Inhibition of human N-terminal GST-tagged CDK2 (1 to 298 residues)/Cyclin A (174 to 432 residues) expressed in Escherichia coli Turner (DE3) cells assessed as reduction in ADP formation using PKTPKKAKKL as substrate by resorufin dye based fluorescence assay
pIC50: −log10 of the molar value.
Grouping rule (pIC50): small value (below 4), mid value (4 to below 5), large value (5 or more)

In [3]: df
Out[3]:
                                    molecule          cat
 0  Cc1nn(-c2ccccn2)c2c1C(=O)CC(C(C)C)C2Br (stereo in doubt)  small value
 1  Cc1nn(-c2ccccn2)c2c1C(=O)CC(C)(C)C2Br (stereo not drawn)  large value
 2  Cc1cccnc1-n1nc(C)c2c1C(Br)C(C)(C)CC2=O (stereo not drawn)  small value
 3  Cc1nn(-c2ccccn2)c2c1C(=O)CC(C)(C)C2N(C)C (stereo not drawn)  small value
 4  Cc1nn(-c2ccc(C(F)(F)F)cn2)c2c1C(=O)CC(C)(C)C2Br (stereo not drawn)  large value
 5  Cc1nn(-c2ccccn2)c2c1C(O)CC(C)(C)C2Br (stereo not drawn)  small value
 6  Cc1nn(-c2ccc([N+](=O)[O-])cn2)c2c1C(=O)CC(C)(C)C2Br (stereo not drawn)  large value
 7  Cc1nn(-c2ccc(NS(N)(=O)=O)cn2)c2c1C(=O)CC(C)(C)C2Br (stereo not drawn)  large value
 8  Cc1nn(-c2ccccn2)c2c1C(=O)CC(C)C2Br (cis isomer)    mid value
 9      Cc1nn(-c2ccccn2)c2c1NC(=O)CC(C)(C)C2  small value
10  Cc1nn(-c2nc3ccccc3s2)c2c1C(=O)CC(C)(C)C2Br (stereo not drawn)  small value
11  Cc1nn(-c2ccccn2)c2c1C(=O)CC(C)(C)C2N (stereo not drawn)  small value
12  Cc1nn(-c2ccc(Cl)nn2)c2c1C(=O)CC(C)(C)C2Br (stereo not drawn)    mid value
13  Cc1nn(-c2ccccn2)c2c1C(=O)CC(C)C2Br (stereo in doubt)  large value
14  Cc1nn(-c2ccccn2)c2c1C(=O)CC(C)(C)C2Cl (stereo not drawn)  large value
15  Cc1nn(-c2ccc3ccccc3c2)c2c1C(=O)CC(C)(C)C2Br (stereo not drawn)    mid value
16  Cc1nn(S(=O)(=O)c2ccc([N+](=O)[O-])cc2)c2c1C(=O)CC(C)(C)C2Br (stereo not drawn)  small value
17  CC(C)Cc1nn(-c2ccccn2)c2c1C(=O)CC(C)(C)C2Br (stereo not drawn)  small value
18      Cc1nn(-c2ccccn2)c2c1C(=O)NCC(C)(C)C2  small value

====

test: Permeability across basolateral to apical side in MDCK cells at 1 uM after 2 hrs by LC-MS/MS analysis; assay type: ADME, cell-based, Canis lupus familiaris; settings: dog

molecule	Drug recovery / %
Cc1nn(-c2ccccn2)c2c1C(=O)CC(C)(C)C2Br (centres undefined)	49.8
Cc1ccc(NC(=O)c2ccc(CN3CCN(C)CC3)cc2)cc1Nc1nccc(-c2cccnc2)n1 [IMATINIB]	69.9
C[C@H]1O[C@@H](O[C@H]2[C@@H](O)C[C@H](O[C@H]3[C@@H](O)C[C@H](O[C@H]4CC[C@@]5(C)[C@H](CC[C@@H]6[C@@H]5C[C@@H](O)[C@]5(C)[C@@H](C7=CC(=O)OC7)CC[C@]65O)C4)O[C@@H]3C)O[C@@H]2C)C[C@H](O)[C@@H]1O [DIGOXIN]	83.7
COCCc1ccc(OCC(O)CNC(C)C)cc1 (centres undefined) [METOPROLOL]	90.4
